Below, each of the variants is paired with its reported protein stability index value.
B1: TPD52L2 (parent)
chain: EAEEEELRAELTKVEEEIVTLRQV

- Variants of: B1
- protocol: protein stability index of a GFP-peptide fusion (GPS, HEK-293T) (PSI 1-6); higher = more stable;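 note: lentivirally expressed fusions sorted by FACS into six bins by GFP to DsRed ratio, PSI derived from sequencing read proportions per bin multiplied by bin number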
- condition: c terminus: a fixed tail appended
In your answer, state the number alone without any accompanying words.

Please review the following examples before continuing.
Prompt: Item under review: "E15T" . Reported protein stability index?
Response: 4.63

Prompt: Item under review: "I18E" . Reported protein stability index?
Response: 5.86

Prompt: Item under review: "E5G" . Reported protein stability index?
Response: 2.97

Next:
Prompt: Item under review: "L7E" . Reported protein stability index?
Response: 5.74

Prompt: Item under review: "K13R" . Reported protein stability index?
Response: 3.27

Prompt: Item under review: "V24T" . Reported protein stability index?
Response: 4.39

Prompt: Item under review: "E10S" . Reported protein stability index?
Response: 3.49

Prompt: Item under review: "L7M" . Reported protein stability index?
Response: 5.21

Prompt: Item under review: "E3Y" . Reported protein stability index?
Response: 2.86

Prompt: Item under review: "L21W" . Reported protein stability index?
Response: 3.63

Prompt: Item under review: "K13D" . Reported protein stability index?
Response: 5.76

Prompt: Item under review: "E1K" . Reported protein stability index?
Response: 3.06

Prompt: Item under review: "E1Y" . Reported protein stability index?
Response: 3.35

Prompt: Item under review: "L7V" . Reported protein stability index?
Response: 5.77

Prompt: Item under review: "V24P" . Reported protein stability index?
Response: 4.65

Prompt: Item under review: "A9T" . Reported protein stability index?
Response: 3.67

Where do these numbers come from? They come from the supplement of paper PMC10567573.
